# credit: patent US20240150440A1

I'd appreciate it if you could supply EC50 values for the items below.
# test.target: T1, SARS-CoV-2 Delta Variant RBD (SARS-CoV-2 Delta variant)
# T1 construct: domain: RBD; coated on ELISA plates
# assay: ELISA, RBD coated
Answers are plain numbers, in nM.

{"binder": "PP927 MBP-5HVZ-R1i-C8-H6 (VHH, Form: Dimer) VHH: QVQLVESGGGLVQPGGSLRLSCAASGRQFGAWRMHWYRQAPGKQREWVAGITSGTSGNYADSVKGRFTISRDNAKNTVYLQMNSLKPEDTAVYYCAATSHTTYHAEYWGQGTQVTVSS", "EC50, nM": 94.2}

// for each binder below, give its EC50
1. PP1111 MBP-5HVZ-PAPA-RN-27-H6 (VHH, Form: Dimer) VHH: QVQLVESGGGLVQPGGSLRLSCAASGPQFSSNAVSWFRQAPGKEREWVAGITSGGSTDYADSVKGRFTISRDNAKNTVYLQMNSLKPEDTAVYYCTAPSVSDADRRTRDYWGQGTQVTVSS
2. PP1105 MBP-5HVZ-PAPA-RN-20-H6 (VHH, Form: Dimer) VHH: QVQLVESGGGLVQPGGSLRLSCAASGNYFEINKMHWFRQAPGKQREFVATIGSGGSTAYADSVKGRFTISRDNAKNTVYLQMNSLKPEDTAVYYCNALIYLADRRDGYYSYDYWGQGTQVTVSS
3. PP933 MBP-5HVZ-R5e-C1-H6 (VHH, Form: Dimer) VHH: QVQLVESGGGLVQPGGSLRLSCAASGSIPYVQAMSWFRQAPGKGREGVASIGWGGGTYYADSVKGRFTISRDNAKNTVYLQMNSLKPEDTAVYYCAAKFRENFSFYDYWGQGTQVTVSS

// result
[231, 36.6, 8.87]
